RUN DESCRIPTION: AUC(0 to t) in Sprague-Dawley rat at 10 mg/kg, iv measured upto 48 hrs by LC-MS/MS analysis
Type: ADME, organism-based
RUN CONDITIONS: in vivo
AUC(0-t) at 48 h listing for selected compounds.

N#Cc1cncc(COc2cc(OCc3cccc(-c4ccc5c(c4)OCCO5)c3C(F)F)ccc2CNCCO)c1	12800 ng·h/mL

--- query ---
Quick one: AUC(0-t) at 48 h for COc1nc(OCc2cccc(-c3ccccc3)c2C)ccc1CNCCNC(C)=O ?
8600 ng·h/mL

====

TARGET SYSTEM: Programmed cell death protein 1/Programmed cell death 1 ligand 1 (Homo sapiens, UniProt Q9NZQ7)
Sequence (Q15116 whole entry): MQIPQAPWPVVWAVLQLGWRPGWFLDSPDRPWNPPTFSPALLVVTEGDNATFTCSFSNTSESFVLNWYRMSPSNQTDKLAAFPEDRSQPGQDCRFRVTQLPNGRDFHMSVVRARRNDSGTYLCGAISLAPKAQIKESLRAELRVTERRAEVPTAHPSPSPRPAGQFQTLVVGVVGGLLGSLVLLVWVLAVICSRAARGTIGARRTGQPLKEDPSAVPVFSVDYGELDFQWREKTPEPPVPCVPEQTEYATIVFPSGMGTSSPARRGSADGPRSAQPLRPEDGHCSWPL
Sequence (Q9NZQ7 whole entry): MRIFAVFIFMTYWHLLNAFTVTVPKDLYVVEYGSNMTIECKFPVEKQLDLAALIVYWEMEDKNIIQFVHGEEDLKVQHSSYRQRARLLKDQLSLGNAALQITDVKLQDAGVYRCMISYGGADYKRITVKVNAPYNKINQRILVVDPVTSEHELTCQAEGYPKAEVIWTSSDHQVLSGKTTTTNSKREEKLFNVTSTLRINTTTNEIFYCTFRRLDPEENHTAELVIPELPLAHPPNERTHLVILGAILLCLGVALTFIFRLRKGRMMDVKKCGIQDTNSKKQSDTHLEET
RUN DESCRIPTION: Inhibition of human PD-1 to PD-L1 protein-protein interaction by homogeneous-time resolved fluorescence assay
MEASURE: pIC50
Lab note: report pIC50 as minus log10 of the concentration in molar units, number only.

Some solved entries appear below for comparison.
N#Cc1cncc(COc2cc(OCc3cccc(-c4ccccc4)c3C(F)(F)F)ccc2CNCCO)c1	7.03
N#Cc1cncc(COc2cc(OCc3cccc(-c4ccccc4F)c3CF)ccc2CNCCO)c1	7.60
N#Cc1cncc(COc2cc(OCc3cccc(-c4ccc5c(c4)OCCO5)c3CF)ccc2CN[C@@H](CO)C(=O)O)c1	7.71
N#Cc1cccc(COc2cc(OCc3cccc(-c4ccccc4F)c3C(F)F)ccc2CN[C@@H](CO)C(=O)O)c1	7.00

Quick one: pIC50 for CC(=O)NCCNCc1ccc(OCc2cccc(-c3ccccc3F)c2CF)cc1OCc1cccc(C#N)c1 ?
7.00

Quick one: pIC50 for N#Cc1cncc(COc2cc(OCc3cccc(-c4ccccc4F)c3CF)ccc2CN2CC(C(=O)O)C2)c1 ?
7.73

Quick one: pIC50 for N#Cc1cncc(COc2cc(OCc3cccc(-c4ccc5c(c4)OCCO5)c3CF)ccc2CN2CCC(C(=O)O)C2)c1 (configuration not stated) ?
7.83

Quick one: pIC50 for N#Cc1cncc(COc2cc(OCc3cccc(-c4cc(F)ccc4F)c3CF)ccc2CNCCO)c1 ?
7.38

Quick one: pIC50 for N#Cc1cncc(COc2cc(OCc3cccc(-c4ccccc4F)c3CF)ccc2CN2CCCCC2C(=O)O)c1 (configuration not stated) ?
7.57

Quick one: pIC50 for N#Cc1cncc(COc2cc(OCc3cccc(-c4ccccc4F)c3C(F)F)ccc2CN[C@@H](CO)C(=O)O)c1 ?
7.77

Quick one: pIC50 for N#Cc1cccc(COc2cc(OCc3cccc(-c4ccccc4F)c3CF)ccc2CNCCO)c1 ?
7.00

Quick one: pIC50 for N#Cc1cncc(COc2cc(OCc3cccc(-c4ccc5c(c4)OCCO5)c3CF)ccc2CNCC(=O)O)c1 ?
7.00

Quick one: pIC50 for N#Cc1cncc(COc2cc(OCc3cccc(-c4ccccc4F)c3CF)ccc2CN2CCC(C(=O)O)C2)c1 (configuration not stated) ?
7.60

====

Tmax listing for selected compounds.
RUN DESCRIPTION: Tmax in Sprague-Dawley rat at 10 mg/kg, iv measured upto 48 hrs by LC-MS/MS analysis
Format: ADME, organism-based
RUN CONDITIONS: in vivo
Write it as a number; the unit min goes unstated.

COc1nc(OCc2cccc(-c3ccccc3)c2C)ccc1CNCCNC(C)=O	7.2

Quick one: Tmax for N#Cc1cncc(COc2cc(OCc3cccc(-c4ccc5c(c4)OCCO5)c3C(F)F)ccc2CNCCO)c1 ?
7.8

====

TARGET SYSTEM: Programmed cell death protein 1/Programmed cell death 1 ligand 1 (Homo sapiens, UniProt Q9NZQ7)
RUN DESCRIPTION: Inhibition of human PD-1 to PD-L1 protein-protein interaction by homogeneous-time resolved fluorescence assay
MEASURE: pIC50
Lab note: report pIC50 as minus log10 of the concentration in molar units, number only.

Some solved entries appear below for comparison.
CC(=O)NCCNCc1ccc(OCc2cccc(-c3ccccc3F)c2CF)cc1OCc1cncc(C#N)c1	7.50
CC(=O)NCCNCc1ccc(OCc2cccc(-c3cc(F)ccc3F)c2CF)cc1OCc1cncc(C#N)c1	7.00
N#Cc1cncc(COc2cc(OCc3cccc(-c4ccccc4F)c3C(F)F)ccc2CN2CCC[C@H]2C(=O)O)c1	6.92

Quick one: pIC50 for CN(C)CCNCc1ccc(OCc2cccc(-c3ccc4c(c3)OCCO4)c2C(F)F)cc1OCc1cncc(C#N)c1 ?
7.53

Quick one: pIC50 for N#Cc1cncc(COc2cc(OCc3cccc(-c4ccccc4)c3C(F)(F)F)ccc2CN[C@@H](CO)C(=O)O)c1 ?
7.23

Quick one: pIC50 for N#Cc1cncc(COc2cc(OCc3cccc(-c4ccc5c(c4)OCCO5)c3CF)ccc2CN2CCCCC2C(=O)O)c1 (centres undefined) ?
7.00

====

TARGET SYSTEM: Programmed cell death protein 1/Programmed cell death 1 ligand 1 (Homo sapiens, UniProt Q9NZQ7)
RUN DESCRIPTION: Inhibition of human PD-1 to PD-L1 protein-protein interaction by homogeneous-time resolved fluorescence assay
Threshold 0.01 µM: IC50 strictly smaller gives t, otherwise f.

Worked set:
N#Cc1cncc(COc2cc(OCc3cccc(-c4ccccc4F)c3CF)ccc2CN2CCC[C@H]2C(=O)O)c1	t
N#Cc1cncc(COc2cc(OCc3cccc(-c4ccc5c(c4)OCCO5)c3CF)ccc2CNCCO)c1	f
N#Cc1cncc(COc2cc(OCc3cccc(-c4ccccc4F)c3C(F)F)ccc2CNCCO)c1	f

Find out if reported IC50 for CC(=O)NCCNCc1ccc(OCc2cccc(-c3ccc4c(c3)OCCO4)c2CF)cc1OCc1cncc(C#N)c1 is less than 0.01 µM
f

Find out if reported IC50 for OCC(O)CNCc1ccc(OCc2cccc(-c3ccc4c(c3)OCCO4)c2C(F)F)cc1OCc1cccnc1 (stereo not drawn) is less than 0.01 µM
f

Find out if reported IC50 for CC(=O)NCCNCc1ccc(OCc2cccc(-c3ccc4c(c3)OCCO4)c2C(F)F)cc1OCc1cncc(C#N)c1 is less than 0.01 µM
f

Find out if reported IC50 for N#Cc1cncc(COc2cc(OCc3cccc(-c4ccc5c(c4)OCCO5)c3C(F)F)ccc2CNCC(O)CO)c1 (stereo not drawn) is less than 0.01 µM
t

Find out if reported IC50 for N#Cc1cncc(COc2cc(OCc3cccc(-c4cc(F)ccc4F)c3CF)ccc2CN[C@@H](CO)C(=O)O)c1 is less than 0.01 µM
f

====

pIC50 listing for selected molecules.
TARGET SYSTEM: Programmed cell death protein 1/Programmed cell death 1 ligand 1 (Homo sapiens)
RUN DESCRIPTION: Inhibition of human PD-1 to PD-L1 protein-protein interaction by homogeneous-time resolved fluorescence assay
Lab note: report pIC50 as minus log10 of the concentration in molar units, number only.

Give the reported pIC50 for CN(C)CCNCc1ccc(OCc2cccc(-c3ccc4c(c3)OCCO4)c2C(F)F)cc1OCc1cccnc1 (system: Programmed cell death protein 1/Programmed cell death 1 ligand 1 (Homo sapiens)).
7.00

Give the reported pIC50 for N#Cc1cccc(COc2cc(OCc3cccc(-c4ccccc4F)c3C(F)F)ccc2CNCCO)c1 (system: Programmed cell death protein 1/Programmed cell death 1 ligand 1 (Homo sapiens)).
7.00

Give the reported pIC50 for N#Cc1cncc(COc2cc(OCc3cccc(-c4ccccc4F)c3CF)ccc2CN[C@H](CO)C(=O)O)c1 (system: Programmed cell death protein 1/Programmed cell death 1 ligand 1 (Homo sapiens)).
8.00

Give the reported pIC50 for N#Cc1cncc(COc2cc(OCc3cccc(-c4ccccc4F)c3CF)ccc2CN2CCC(O)C2)c1 (stereo not given) (system: Programmed cell death protein 1/Programmed cell death 1 ligand 1 (Homo sapiens)).
7.25

Give the reported pIC50 for N#Cc1cncc(COc2cc(OCc3cccc(-c4ccccc4F)c3CF)ccc2CN[C@@H](CO)C(=O)O)c1 (system: Programmed cell death protein 1/Programmed cell death 1 ligand 1 (Homo sapiens)).
7.90
